src = ChEMBL document CHEMBL5661980

- protocol.notes: Clearance in Sprague-Dawley rat measured at 5 mg/kg, iv for 1 to 24 hrs by HPLC-MS/MS analysis
- Type: ADME, organism-based
- experimental.context: in vivo, time 1-24 hrs
quantity.measured: clearance (mL/min/kg)
The reply should contain only the number, in mL/min/kg.

## Input // fetch clearance given entry C[C@]1(O)C[C@@H](c2nc(-c3ccc4ccc(-c5ccccc5)nc4c3)c3c(N)nccn32)C1
## Output 4

====

Parameter Cmax: see the listing below.
- protocol.notes: Cmax in CD-1 mouse at 50 mg/kg, po measured after 1 to 24 hrs by HPLC-MS/MS analysis
- Format: ADME, organism-based
- experimental.context: in vivo, time 1-24 hrs
State the answer as a number, implicitly in µM.

Nc1nccn2c1c(-c1ccc3ccc(-c4ccccc4)nc3c1)nc2[C@H]1CC[C@H](C(N)=O)CC1 :: 11.3

Now let's try a different one.
## Input For the molecule Nc1nccn2c(C3CCC3)nc(-c3ccc4ccc(-c5ccccc5)nc4c3)c12 , report Cmax.
## Output 2.68
